Test system: SNB-75 CNS
assay summary: NCI-60 one-dose screen, 48 h
condition label: 10 µM unless noted
This is part of a sample that, as a whole, favours compounds with a hit. Of some 83,000 tested, about 20% had one in any assay. Calls of active or inactive are those of the source. How the source made its calls: active means growth percent below 10; inactive means the rest.
Outcome field: choose from True for active, False for inactive

Input line: Short answer needed: outcome of this test for Cc1cc(C)c(O)c(CNCCCNCc2cc(C)cc(C)c2O)c1 ?
Output line: False

Input line: Short answer needed: outcome of this test for Nc1nnc(CSc2nnc3n(Cc4ccccc4)c(=O)c4c5c(sc4n23)CCCC5)s1 ?
Output line: False

Input line: Short answer needed: outcome of this test for O=C(Nc1cccnc1)c1ccc2ccc3ccc(C(=O)Nc4cccnc4)nc3c2n1 ?
Output line: False

---

Tested on: HCT-116 colon
assay summary: NCI-60 one-dose screen, 48 h (100 = growth as untreated, 0 = no growth, -100 = all killed)
condition label: 10 µM unless noted
This is part of a sample that, as a whole, favours compounds with a hit. Of some 83,000 tested, about 20% had one in any assay. Calls of active or inactive are those of the source. How the source made its calls: active means growth percent below 10; inactive means the rest.
Measured growth by item

# example entries with known answers
| compound | reported value |
| --- | --- |
| O=C(Nc1cc(-c2cccnc2)nc(NCCCN2CCOCC2)n1)c1cc(Br)cc(C(F)(F)F)c1 | 35.7% (inactive) |
| C#CCNC(=O)CC[C@]1(C)[C@H]2CC[C@@H]3[C@@H]([C@@](C)(O)CCC=C(C)C)CC[C@@]3(C)[C@]2(C)CC[C@H]1C(=C)C | 16.6% [100 µM] (inactive) |
| O=c1[nH]c(CN2CCN(c3cccc(Cl)c3)CC2)nc2cc(Cl)ccc12 | 92.4% (inactive) |

Input line: Name the recorded growth for Cn1ncc2c(Nc3ccc(O)cc3)nc(Cl)nc21 .
Output line: 108% (inactive)

Input line: Name the recorded growth for C#CCOc1ccc(C2=NN(CC3CC3)C3N=C(Cl)c4ncn(CC5CC5)c4N23)cc1OCC#C (stereo not given) .
Output line: 80.5% (inactive)

Input line: Name the recorded growth for Cc1cc(C)c(O)c(CNCCCNCc2cc(C)cc(C)c2O)c1 .
Output line: 51.6% (inactive)

---

Test system: K-562 leukemia
assay summary: NCI-60 one-dose screen, 48 h
condition label: 10 µM unless noted
Protocol: Cells are grown in 96 well plates and exposed to the test compound for 48 hours. Compounds are tested at a single concentration, which is 10^-5 M for most compounds. The reported endpoint is percent growth (GI% or GIPRCNT), where numbers from 0 - 100% represent growth inhibition, and numbers from -100% - 0 represent cell death. For example, a value of 40 represents 60% growth inhibition. A value of 0 means no net growth occurred over the course of the experiment. […]
This is part of a sample that, as a whole, favours compounds with a hit. Of some 83,000 tested, about 20% had one in any assay. Activity calls are given as the source filed them. How the source made its calls: active means growth percent below 10; inactive means the rest.
Outcome field: choose from active, inactive

Below, 4 compounds whose answers are already recorded.
| cpd smiles | category |
| --- | --- |
| C=C(C)[C@@H]1CC[C@]2(C(N)=O)CC[C@]3(C)[C@H](CC[C@@H]4[C@@]5(C)C/C(=C/c6cccnc6)[C@H](O)C(C)(C)[C@@H]5CC[C@]43C)[C@@H]12 | active |
| CC(C)OC(=O)Nc1cc(F)c(F)cc1F | inactive |
| Brc1ccc(-c2nnc3c4[nH]ccc4ncn23)cc1 | inactive |
| COc1ncc(-c2ccc3nccc(C#CCCCCC(=O)NO)c3c2)cc1NS(=O)(=O)c1ccc(F)cc1F | inactive |

Input line: Short answer needed: outcome of this test for CC(C)C1=NOC(=O)C1=Cc1cn(-c2ccccc2)nc1-c1ccccc1 ?
Output line: inactive
